Assay: Blood, urine and tissue concentrations in mice after oral administration (microbiological assay with Bacillus pumilus)
Type: in vivo
Conditions: blood, po, 2mg/mouse P.O., 2 hours after dosing, read-out: Conc. in blood at 2HR
recorded-endpoint: log10 of concentration at 2 h (log10 of the value in ng/mL)
Could you please treat all values as log10 of concentration at 2 h in ng/mL?

[in] Give the value of log10 of concentration at 2 h reported for the following: COc1cc(Cc2cnc(N)nc2N)cc(OC)c1OC [TMP, reference compound]
[out] 2.45

[in] Find the measured log10 of concentration at 2 h of "CC(C)c1cc(Cc2cnc(N)nc2N)cc(C(C)C)c1O" and report it.
[out] 3.03

[in] Kindly indicate its recorded log10 of concentration at 2 h. Item: "CCc1cc(Cc2cnc(N)nc2N)cc(CC)c1O"
[out] 2.61

[in] Consider the molecule "CCCc1cc(Cc2cnc(N)nc2N)cc(CC)c1O" and give its recorded log10 of concentration at 2 h.
[out] 2.95

[in] Item "CCCc1cc(Cc2cnc(N)nc2N)cc(CCC)c1O" : provide log10 of concentration at 2 h
[out] 2.70

[in] Note down log10 of concentration at 2 h recorded for "CC(C)(C)c1cc(Cc2cnc(N)nc2N)cc(C(C)(C)C)c1O"
[out] 3.60
